Ref: PubChem BioAssay (NCATS)

# protocolNotes: qHTS of pediatric cancer cell lines to identify multiple opportunities for drug repurposing: Primary screen for SJ-GBM2 cells (AID 1347091)
# setupConditions: SJ-GBM2 viability, CellTiter-Glo luminescence, 48 h; series mostly up to 46 µM
Inconclusive results are not listed. Activity calls are given as the source filed them. Calls come from the whole dose curve; as a rule, active = well fitted cell-killing curve with a large enough effect; inconclusive = small, poorly fitted or top-dose-only effect; inactive = no such curve, though single readings can be large or run the other way.
Assign a class; possible classes are T = active, F = inactive

What did this assay record as the result for Cc1cc(OCCCc2c(C(=O)O)n(Cc3cccnc3)c3c(-c4c(COc5ccc(N6CCN([S+](C)(=O)[O-])CC6)cc5)nn(C)c4C)cccc23)cc(C)c1Cl ?
T

Next compound: CCNc1cc(NC2CCC(O)CC2)nc(Nc2ccc3c(ccn3Cc3ccccc3)c2)n1 (stereo not given)
T

Same again, this time with NC[C@@H]1O[C@@H](O[C@H]2[C@@H](O)[C@H](O[C@@H]3[C@@H](O)[C@@H](N)C[C@H](N)[C@H]3O[C@H]3O[C@H](CN)[C@@H](O)[C@@H](O)[C@H]3N)O[C@H]2CO)[C@H](N)[C@@H](O)[C@@H]1O
F

Same question, O=C(Nc1c(Cl)cncc1Cl)c1ccc(OC(F)F)c(OCC2CC2)c1 this time
F

Now consider Cc1ccc(C(C)(O)c2nc3ccccc3s2)c(C)c1 (stereo not given) .
T

Lookup CCN(CC)C(=O)c1ccc(O)c(OC)c1
F

And CS(=O)c1ccc(-c2nc(-c3ccc(F)cc3)c(-c3ccncc3)[nH]2)cc1 (stereo not given) ?
T

Record: COc1ccccc1N1CCN(CCCNc2cc(=O)n(C)c(=O)n2C)CC1
F

// next record CN[C@@H](C)C(=O)N[C@H]1CN(C(=O)CC(C)C)CC[C@H]2CC[C@@H](C(=O)NC(c3ccccc3)c3ccccc3)N2C1=O
T

Consider next the compound COc1ccc2cccc(CCNC(C)=O)c2c1 in the same way.
F

Now the compound NC(=O)NN=Cc1ccc([N+](=O)[O-])o1
F

Lookup CC(C)(C)c1cc(C(=O)O)c(NC(=O)Nc2ccc3[nH]ncc3c2)s1
F

Note, next up: OC[C@H]1O[C@@H](n2cnc3c2NC=NC[C@@H]3O)C[C@H]1O
F

Let us now turn to CC(C)C(=O)Nc1ncc(-c2cc(C(F)F)nn2-c2c(Cl)cccc2Cl)s1
T

// repeat for NC(N)=Nc1nc(CSCC/C(N)=N/S(N)(=O)=O)cs1 and report
F

What about this compound? O=C(O)C=Cc1ccc(O)c(O)c1
F

Similarly, Nc1nc(F)nc2c1ncn2[C@@H]1O[C@H](COP(=O)(O)O)[C@@H](O)[C@H]1O ?
T

Same read-out for CC(=O)N[C@@H](CS)C(=O)O ?
F

Next compound up: CC(C)OC(=O)CCCC=CC[C@@H]1[C@H](C=C[C@@H](O)COc2cccc(C(F)(F)F)c2)[C@H](O)C[C@@H]1O
T

Next compound up: CCn1cc(C(=O)O)c(=O)c2ccc(C)nc21
F
